# assay.system: T1, PSMA Fab (biotinylated (site not stated))
# T1 construct: also called Anti-PSMA Fab; 006 PSMA Fab
# test.name: phage ELISA: clonal phage on biotinylated PSMA Fab captured on neutravidin, anti-M13-HRP detection, blocking buffer alone
Each record here notes measured Phage binding ELISA signal, Anti-PSMA Fab.
metric: Phage binding ELISA signal, Anti-PSMA Fab

binder	obs.value
ETLMCIPNWMCDGF (Peptide-180 library clone, tested as clonal phage supernatant with the peptide fused to pIII) [Phage-3293]	1.89
EDYVCRPTWMCVGF (Peptide-180 library clone, tested as clonal phage supernatant with the peptide fused to pIII) [Phage-3289]	1.89
VERMCKPEWMCFGF (Peptide-180 library clone, tested as clonal phage supernatant with the peptide fused to pIII of the bacteriophage) [Phage-3281]	1.9
ELQRCIPQWMCVGL (Peptide-180 library clone, tested as clonal phage supernatant with the peptide fused to pIII) [Phage-3284]	1.89
VDAYCKPAWMCLGF (Peptide-180 library clone, tested as clonal phage supernatant with the peptide fused to pIII) [Phage-3288]	1.89
PTLRCEPLWMCAGF (Peptide-180 library clone, tested as clonal phage supernatant with the peptide fused to pIII) [Phage-3286]	1.89
